Assay: soluble fraction after stress (log2 fold change); higher = more stays soluble; pooled small domains, quantitative proteomics
Details: stress: 50 degC
Lab note: class by soluble fraction (log2), see bottom bin: < -0.1; middle bin: ≥ -0.1 and < 0.1; top bin: ≥ 0.1

ORDERED_RESIDUES	GROUP_LABEL
HMDAMQAFPNPTVDEIHFVTPTTGRVYNAHGQLVMVLKNAQLVNVRQWSAGQYVIVREDGYAVRWIK	bottom bin
HMGSGQIRYITENTVRVVYGTSKENEFVFQDGKPYPKDTPYHIHYTRNLEEYFMSGVEHDKNSKIILKVD	bottom bin
HMGGRRHANMSREEEAAFLAPFFEKAAQGGILVVREIRQALDAHLGRTVPLSTVYNLLHRHNWRKL	bottom bin
HMGSQELIQLGERIRQKRKDSHLTQETFAEKAGISVNTVSRIEGGQAAMSIEIFAKLVEILDADANELLG	bottom bin
HMEAMITEVKRINYGLISDISKSLDPFKSEGGHIIVDKRTNTFILTDLRANIEKMLWSIEIMD	bottom bin
HMSVERIEPPLPLIDTLLALRDALERPLSREENAFLSRRFAGGATRAQIDALAAQFRGAAAAESKV	top bin
HMTAIKAGDLVKITGTKYYGGQTIPGWVKNQNWYVQEVSGDRAVINKNESGTNAIMSPIRVSDLTPVS	top bin
HMDLSPEQAELAAIRGELGIKIDDYALALNIPRDRLTSYLYGRANVPAEVLISARELRYASSA	middle bin
HMGGVSTDKPLNWDADGTSKLTQEQIDYLRSTYDLSDMSKQDYYDLMADLTNMNAISIKDVISQYVK	middle bin
HMIPEGKWMEDPISEGQIKFIETLIKQAIDSGQDALGAEAKQYLSSGEATKGNASSMIDKLKDAL	top bin
HMTTIKLTQEDVEKIKSLPKRTFLIGNLQQTGLYDEKTRRFYYLDANGEWNGRLAIINTPPPPPPPP	top bin
HMALKPKITIEELIRILNESKDLSDSETAKILNKDYTTAKYGKEFTSINVQGARYALDIATNTS	bottom bin
HMSDPDPAEQALLRQFMTRYAAYRRRGQHPAGAFRTASLEVFGQEPSGDLRDVIVDLESGLV	bottom bin
HMVPTYEAYVGKEGLVVGTLRPAGTAEFDGERLDVVSEGEYLEAGTRVQIVRTEGRRIVVRKIN	middle bin
HMDADTVGQIRVVKQILDDGRLIVVDASGNPVLVRRSSALSLTAISQGDRIIVDPSVRLAIELLPNE	top bin
HMDNLKELDEILETYGKKKGYLITILQKAQDAYGYISIDIMNRISEFTGIKVAKIYGVATFYAQFRL	top bin
HMNQRQKQLLSILEQQGDWMKGKALATLLAVSDRTIRSDIEKINREVEGSILSHPHKGYLLSVENRQIAET	top bin
